Value source: patent US20100222332A1

Listed here: items and their measured melting point.
Counter-ions that a name gives are not always drawn.

Before answering, review these 3 worked examples.
{"compound": "CC(C)(C)OC(=O)N[C@@H](CSSC[C@H](NC(=O)OC(C)(C)C)C(=O)N1CCCn2nc(-c3ccccc3)cc2C1CC1CCCCC1)C(=O)N1CCCn2nc(-c3ccccc3)cc2C1CC1CCCCC1 (mixture of isomers)", "melting point": "105 to 116 °C"}
{"compound": "CC(C)(C)OC(=O)N[C@@H](CSSC[C@H](NC(=O)OC(C)(C)C)C(=O)N1CCn2nc(-c3ccccc3)cc2[C@H]1CC1CCCCC1)C(=O)N1CCn2nc(-c3ccccc3)cc2[C@H]1CC1CCCCC1", "melting point": "114 to 139 °C"}
{"compound": "N[C@@H](CSSC[C@H](N)C(=O)N1CCCn2nc(-c3ccccc3)cc2C1CC1CCCCC1)C(=O)N1CCCn2nc(-c3ccccc3)cc2C1CC1CCCCC1 (mixture of isomers) (as salt: hydrochloride)", "melting point": "198 to 208 °C"}

Challenge: Give its melting point value. Item: CC(C)(C)OC(=O)N[C@@H](CSSC[C@H](NC(=O)OC(C)(C)C)C(=O)N1CCn2nc(-c3cccnc3)cc2C1CCc1ccccc1)C(=O)N1CCn2nc(-c3cccnc3)cc2C1CCc1ccccc1 (mixture of isomers)
Response given: 115 to 130 °C

Challenge: Give its melting point value. Item: CC(C)(C)OC(=O)N[C@@H](C[Se][Se]C[C@H](NC(=O)OC(C)(C)C)C(=O)N1CCn2nc(-c3ccccc3)cc2C1CC1CCCCC1)C(=O)N1CCn2nc(-c3ccccc3)cc2C1CC1CCCCC1 (mixture of isomers)
Response given: 117 to 120 °C

Challenge: Give its melting point value. Item: N[C@@H](CSSC[C@H](N)C(=O)N1CCn2nc(-c3ccc4c(c3)OCO4)cc2C1CCc1ccccc1)C(=O)N1CCn2nc(-c3ccc4c(c3)OCO4)cc2C1CCc1ccccc1 (mixture of isomers) (as salt: hydrochloride)
Response given: 221 °C (dec.)

----------
Where a name gives a salt, the structure may show the parent alone.
value_kind: melting point

Before answering, review these 3 worked examples.
{"molecule": "N[C@@H](CSSC[C@H](N)C(=O)N1CCn2nc(-c3ccco3)cc2C1CCc1ccccc1)C(=O)N1CCn2nc(-c3ccco3)cc2C1CCc1ccccc1 (mixture of isomers) (as salt: hydrochloride)", "melting point": "207 °C (dec.)"}
{"molecule": "N[C@@H](CSSC[C@H](N)C(=O)N1CCn2nc(-c3cccs3)cc2C1CCc1ccccc1)C(=O)N1CCn2nc(-c3cccs3)cc2C1CCc1ccccc1 (mixture of isomers) (as salt: hydrochloride)", "melting point": "218 °C (dec.)"}
{"molecule": "COc1cc(-c2cc3n(n2)CCN(C(=O)[C@@H](N)CSSC[C@H](N)C(=O)N2CCn4nc(-c5cc(OC)c(OC)c(OC)c5)cc4C2CCc2ccccc2)C3CCc2ccccc2)cc(OC)c1OC (mixture of isomers) (as salt: hydrochloride)", "melting point": "211 °C (dec.)"}

Challenge: Give its melting point value. Item: N[C@@H](C[Se][Se]C[C@H](N)C(=O)N1CCn2nc(-c3ccccc3)cc2C1CC1CCCCC1)C(=O)N1CCn2nc(-c3ccccc3)cc2C1CC1CCCCC1 (mixture of isomers) (as salt: hydrochloride)
Response given: 217 to 220 °C (dec.)

Challenge: Give its melting point value. Item: CCCCC1c2cc(-c3ccccc3)nn2CCN1C(=O)[C@@H](N)CSSC[C@H](N)C(=O)N1CCn2nc(-c3ccccc3)cc2C1CCCC (mixture of isomers) (as salt: hydrochloride)
Response given: 210 to 215 °C (dec.)
